Test: solvent given as SMILES
Conditions: in C1COCCO1
value.type: absorption maximum (nm)

1. N#C/C(=C\c1cn(-c2ccccc2)nc1-c1ccccc1)c1nc2ccccc2s1    381
2. COc1ccc(C2=N/C(=C\c3ccc(C#N)cc3)C(=O)O2)cc1OC    393
3. CN(C)c1ccc(/C=C/c2ccc(-c3cc(-c4ccccn4)nc(-c4ccccn4)c3)cc2)cc1    369
4. N#Cc1c2nc3ccccn3c2nc2c1nc1ccccn12    425
5. COc1ccc(C2=C/C(=C\c3ccccc3)C(=O)O2)cc1OC    406

====

Test: solvent given as SMILES
Settings: in CO
value.type: absorption maximum (nm)

1) O=C1c2ccccc2NC(c2ccccc2)N1Cc1ccccc1 (stereo unspecified)    345
2) O=C(O)c1c2ccccc2nc2ccccc12    356
3) C(=C\c1nc2ccccc2[nH]1)/c1ccc(/C=C/c2nc3ccccc3[nH]2)cc1    384
4) O=C1C=C(Nc2ccccc2F)C(=O)c2ccccc21    448
5) CC\C=C/C=C/C=C/C=C\CCCCCCCC(=O)O    318.6

[I] O=[N+]([O-])c1ccc(/C=C/c2c[nH]c3ccccc23)cc1
[II] CC1(C)CC(=O)C2=C(C1)Oc1ccc3ccccc3c1C2c1ccccn1 (stereo unspecified)
[Q] // pick larger absorption maximum from pair: I vs II Lab log: write the label of the selected item as the result.
[A] I
(I: 413 nm, II: 275 nm)

[A] CN1C(C(=O)Nc2ccccn2)=C([O-])c2sccc2S1(=O)=O
[B] c1cc2c(C3SCCCS3)c3ccc(=[N+]4CCCCC4)cc-3oc2cc1N1CCCCC1
[Q] // pick larger absorption maximum from pair: A vs B Lab log: write the label of the selected item as the result.
[A] B
